- System: Rattus norvegicus
- assayNotes: Increase in 3-MT level in Sprague-Dawley rat striatum at 100 umol/kg, sc measured after 1 hr compound administration
- Assay type: functional
Activity by entry:
measurementLabel: Activity (%)

1) CCCN1CCC(c2ccc(OC)cc2)CC1 : 260
2) CCCN1CCN(c2ccc(OC)cc2)CC1 : 135
3) CCCN1CCC(c2ccc(C#N)cc2)CC1 : 115
4) CCCN1CCC(c2ccccc2)CC1 : 100
5) CCCN1CCC(c2ccc(C(F)(F)F)cc2)CC1 : 100
6) CCCCOc1ccc(C2CCN(CCC)CC2)cc1 : 150
7) CCCN1CCN(c2ccc(OS(=O)(=O)C(F)(F)F)cc2)CC1 : 120
8) CCCN1CCN(c2ccccc2)CC1 : 100
9) CCCN1CCC(c2ccc(Cl)cc2)CC1 : 130
10) CCCN1CCC(c2ccc(S(C)(=O)=O)cc2)CC1 : 100
11) CCCN1CCC(c2ccc(N3CCOCC3)cc2)CC1 : 160

----------
Lab note: log10(Ki) readings collected with Amine oxidase [flavin-containing] A (Rattus norvegicus) for the following molecules.
Sequence (P21396 whole entry): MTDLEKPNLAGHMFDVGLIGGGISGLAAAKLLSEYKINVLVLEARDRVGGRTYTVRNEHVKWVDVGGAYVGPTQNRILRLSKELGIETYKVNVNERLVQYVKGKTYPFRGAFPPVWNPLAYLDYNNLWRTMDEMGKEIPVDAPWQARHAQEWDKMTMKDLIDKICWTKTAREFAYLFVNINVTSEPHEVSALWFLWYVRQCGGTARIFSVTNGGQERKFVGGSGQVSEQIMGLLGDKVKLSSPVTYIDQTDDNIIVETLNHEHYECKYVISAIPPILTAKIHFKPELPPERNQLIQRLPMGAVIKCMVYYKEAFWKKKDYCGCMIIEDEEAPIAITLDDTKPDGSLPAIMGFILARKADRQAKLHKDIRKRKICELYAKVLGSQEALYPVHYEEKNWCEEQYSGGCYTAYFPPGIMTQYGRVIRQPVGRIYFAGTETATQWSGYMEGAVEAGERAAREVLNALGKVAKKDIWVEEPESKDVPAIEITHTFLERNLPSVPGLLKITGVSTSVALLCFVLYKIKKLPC
measurementLabel: log10(Ki) (log10 of the value in µM)

1) CCCN1CCC(c2ccc(C(F)(F)F)cc2)CC1 : 0.84
2) CCCCOc1ccc(C2CCN(CCC)CC2)cc1 : -0.43
3) CCCN1CCC(c2ccc(OC)cc2)CC1 : -0.62
4) CCCN1CCN(c2ccc(OC)cc2)CC1 : 0.15
5) CCCN1CCN(c2ccccc2)CC1 : 1.67
6) CCCN1CCC(c2ccc(Cl)cc2)CC1 : 0.18
7) CCCN1CCC(c2ccccc2)CC1 : 0.99
8) CCCN1CCC(c2ccc(C#N)cc2)CC1 : 1.97
9) CCCN1CCN(c2ccc(OS(=O)(=O)C(F)(F)F)cc2)CC1 : 1.23

----------
- targetSystem: Amine oxidase [flavin-containing] B (Rattus norvegicus)
- Sequence (P19643 whole entry): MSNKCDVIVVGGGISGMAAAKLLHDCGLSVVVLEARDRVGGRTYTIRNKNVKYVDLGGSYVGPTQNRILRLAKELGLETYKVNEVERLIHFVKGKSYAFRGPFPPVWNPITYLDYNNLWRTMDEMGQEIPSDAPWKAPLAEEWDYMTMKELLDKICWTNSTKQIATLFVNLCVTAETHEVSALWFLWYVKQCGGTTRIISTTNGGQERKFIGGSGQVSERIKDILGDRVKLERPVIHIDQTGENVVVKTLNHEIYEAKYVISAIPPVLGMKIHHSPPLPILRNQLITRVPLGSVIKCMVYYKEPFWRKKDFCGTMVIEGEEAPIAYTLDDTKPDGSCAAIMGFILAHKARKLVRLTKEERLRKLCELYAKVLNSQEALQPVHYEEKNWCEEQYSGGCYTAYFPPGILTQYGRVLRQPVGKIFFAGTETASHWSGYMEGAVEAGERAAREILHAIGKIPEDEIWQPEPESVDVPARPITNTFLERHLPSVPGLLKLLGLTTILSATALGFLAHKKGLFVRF
pKi: −log10 of the molar value.
measurementLabel: pKi

1. CCCN1CCN(c2ccc(OC)cc2)CC1 : 3.23
2. CCCN1CCC(c2ccc(C(F)(F)F)cc2)CC1 : 4.89
3. CCCN1CCN(c2ccc(OS(=O)(=O)C(F)(F)F)cc2)CC1 : 7.48
4. CCCN1CCC(c2ccc(Cl)cc2)CC1 : 4.42
5. CCCN1CCC(c2ccc(OC)cc2)CC1 : 3.66
6. CCCCOc1ccc(C2CCN(CCC)CC2)cc1 : 5.80
7. CCCN1CCC(c2ccc(C#N)cc2)CC1 : 3.23
